system.tested: human RXFP1 (Homo sapiens (Human))
Sequence (Q9HBX9 whole entry): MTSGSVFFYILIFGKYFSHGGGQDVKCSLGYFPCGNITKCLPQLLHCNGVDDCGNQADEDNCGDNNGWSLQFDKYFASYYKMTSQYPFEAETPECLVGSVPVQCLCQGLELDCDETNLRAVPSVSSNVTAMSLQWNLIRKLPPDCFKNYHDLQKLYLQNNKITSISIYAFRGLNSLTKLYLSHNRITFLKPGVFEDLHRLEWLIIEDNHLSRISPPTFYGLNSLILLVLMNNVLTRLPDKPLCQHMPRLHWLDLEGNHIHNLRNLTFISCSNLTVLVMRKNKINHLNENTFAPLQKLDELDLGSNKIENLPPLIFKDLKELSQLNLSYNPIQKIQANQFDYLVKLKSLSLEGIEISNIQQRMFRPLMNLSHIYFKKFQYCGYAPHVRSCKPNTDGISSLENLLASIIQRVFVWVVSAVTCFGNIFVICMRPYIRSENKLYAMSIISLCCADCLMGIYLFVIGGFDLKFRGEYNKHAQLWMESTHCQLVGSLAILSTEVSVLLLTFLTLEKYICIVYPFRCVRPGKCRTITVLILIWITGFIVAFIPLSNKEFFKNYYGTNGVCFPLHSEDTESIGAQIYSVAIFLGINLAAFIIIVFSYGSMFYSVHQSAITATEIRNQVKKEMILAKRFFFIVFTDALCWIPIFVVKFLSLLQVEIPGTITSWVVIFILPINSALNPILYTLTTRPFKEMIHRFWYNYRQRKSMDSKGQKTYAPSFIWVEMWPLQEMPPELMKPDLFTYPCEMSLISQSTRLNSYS
experiment.summary: hRXFP1 HEK293 cAMP assay
run.conditions: HEK293 cells stably expressing human RXFP1; 30 min at room temperature; HTRF cAMP
Response field label takes label 1 when EC50 is strictly below 1000 nM and label 0 in all other cases.

1. COc1ccc(-c2cc(C(=O)O)ccc2F)cc1C(=O)N[C@H]1[C@@H]2CCC[C@@H]2[C@H]1C(=O)Nc1ccc(F)c(C(F)(F)F)c1 [Example 1]: label 0
2. COc1ccc(C2=NOC3CC(O)CC23)cc1C(=O)NC1C2CCCC2C1C(=O)Nc1ccc(F)c(C(F)(F)F)c1 (centres unmarked) [Example 3]: label 1
3. COc1ccc(-c2cc(C(OC(=O)Nc3ccccc3)C(=O)O)ccc2F)cc1C(=O)N[C@H]1[C@@H]2CCC[C@@H]2[C@H]1C(=O)Nc1ccc(F)c(C(F)(F)F)c1 (some centres unmarked) [Example 7]: label 1
4. COc1ccc(C#CCO)cc1C(=O)N[C@H]1[C@@H]2CCC[C@@H]2[C@H]1C(=O)Nc1ccc(F)c(C(F)(F)F)c1 [Example 2]: label 1
5. COc1ccc(C2=NOC(CO)C2)cc1C(=O)NC1C2CCCC2C1C(=O)Nc1ccc(F)c(C(F)(F)F)c1 (centres unmarked) [Example 5]: label 0
